# Tested on: behaviors of compound-treated mice
# TEST_NAME: Neuropharmacological Assay (SmartCube)
# Format: in vivo
# COND: i.p. 15 min before behavioral test, most efficacious dose(s) of 3 doses
Where a name gives a salt, the structure may show the parent alone.
MEASUREMENT_LABEL: DP: anti-depressant (probability that activity matches class)

The compound NC[C@H]1OCCCc2c(-c3ccccn3)cccc21 [Compound 159, hydrochloride salt] on behaviors of compound-treated mice: DP: anti-depressant (probability that activity matches class) was + (LOQ ≤ + <5%)

The measured DP: anti-depressant (probability that activity matches class) that NC[C@H]1OCCc2cccc(-c3cccnc3)c21 (single isomer, unassigned) [Compound 10, hydrochloride] showed for behaviors of compound-treated mice is ++ (5% ≤ ++ <25%)

Query `CNC[C@@H]1OCCc2c(-c3ccno3)cccc21` on behaviors of compound-treated mice; DP: anti-depressant (probability that activity matches class) returned: + (LOQ ≤ + <5%)

The observed DP: anti-depressant (probability that activity matches class) for CNC[C@@H]1OCCc2cccc(-c3cccnc3)c21 (single isomer, unassigned) [Compound 1, bis-hydrochloride] when tested with behaviors of compound-treated mice stands at ++ (5% ≤ ++ <25%)
